Below, each of the binders is paired with its reported pKd value.
biological target: IL-15 (human, UniProt P40933); assay: SPR, anti-human Fc capture
Sequence (P40933 49-162): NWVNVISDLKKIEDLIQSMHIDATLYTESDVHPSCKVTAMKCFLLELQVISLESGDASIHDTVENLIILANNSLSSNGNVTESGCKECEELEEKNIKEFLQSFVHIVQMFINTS
Lab note: report pKd as minus log10 of the concentration in molar units, number only.

BINDER	OBSERVED
RV36 IL-15 arm (antibody, V domains shown) VH: QVQLVQSGAEVKKPGASVKVSCKASGYSFSSFGISWVRQAPGQGLEWLGWISAFNGYTKYAQKFQDRVTMTTDTSTSTAYMELRSLRSDDTAVYYCARDPAAWPLQQSLAWFDPWGQGTMVTVSS VL: QSVLTQPPSASGTPGQRVTISCSGSTSNLKRNYVYWYQQLPGTAPKLLIYRDRRRPSGVPDRFSGSKSGTSASLAISGLRSEDEADYYCAWYDRELSEWVFGGGTKLTVL	9.94
RV1 (anti-IL-15 mAb DISC0280) (antibody, V domains shown) VH: QVQLVQSGAEVKKPGASVKVSCKASGYSFSSFGISWVRQAPGQGLEWLGWISAFNGYTKYAQKFQDRVTMTTDTSTSTAYMELRSLRSDDTAVYYCARDPAAWPLQQSLAWFDPWGQGTMVTVSS VL: QSVLTQPPSASGTPGQRVTISCSGSTSNLKRNYVYWYQQLPGTAPKLLIYRDRRRPSGVPDRFSGSKSGTSASLAISGLRSEDEADYYCAWYDRELSEWVFGGGTKLTVL	9.46
RV17 IL-15 arm (antibody, V domains shown) VH: QVQLVQSGAEVKKPGASVKVSCKASGYSFSSFGISWVRQAPGQGLEWLGWISAFNGYTKYAQKFQDRVTMTTDTSTSTAYMELRSLRSDDTAVYYCARDPAAWPLQQSLAWFDPWGQGTMVTVSS VL: QSVLTQPPSASGTPGQRVTISCSGSTSNLKRNYVYWYQQLPGTAPKLLIYRDRRRPSGVPDRFSGSKSGTSASLAISGLRSEDEADYYCAWYDRELSEWVFGGGTKLTVL	9.97
RV37 IL-15 arm (antibody, V domains shown) VH: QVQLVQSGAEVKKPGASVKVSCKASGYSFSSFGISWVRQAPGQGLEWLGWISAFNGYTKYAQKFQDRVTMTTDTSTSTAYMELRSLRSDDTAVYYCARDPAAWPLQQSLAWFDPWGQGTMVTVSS VL: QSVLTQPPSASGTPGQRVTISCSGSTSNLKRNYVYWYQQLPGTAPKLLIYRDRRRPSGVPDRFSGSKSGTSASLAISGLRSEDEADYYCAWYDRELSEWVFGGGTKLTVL	10.18
RV18 IL-15 arm (antibody, V domains shown) VH: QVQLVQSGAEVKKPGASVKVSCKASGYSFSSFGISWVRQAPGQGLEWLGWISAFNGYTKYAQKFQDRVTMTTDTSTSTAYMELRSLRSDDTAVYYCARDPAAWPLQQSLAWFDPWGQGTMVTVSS VL: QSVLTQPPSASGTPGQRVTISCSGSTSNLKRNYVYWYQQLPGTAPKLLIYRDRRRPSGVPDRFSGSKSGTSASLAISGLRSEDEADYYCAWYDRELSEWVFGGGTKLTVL	10.11

Item under review: RV30 IL-15 arm (antibody, V domains shown) VH: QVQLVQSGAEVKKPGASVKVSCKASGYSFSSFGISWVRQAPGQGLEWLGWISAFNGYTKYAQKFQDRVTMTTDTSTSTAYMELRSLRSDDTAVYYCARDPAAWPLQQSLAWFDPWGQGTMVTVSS VL: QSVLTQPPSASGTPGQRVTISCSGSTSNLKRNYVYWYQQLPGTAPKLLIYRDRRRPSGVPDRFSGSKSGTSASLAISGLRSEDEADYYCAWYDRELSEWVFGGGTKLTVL . Reported pKd?
10.11

Item under review: RV19 IL-15 arm (antibody, V domains shown) VH: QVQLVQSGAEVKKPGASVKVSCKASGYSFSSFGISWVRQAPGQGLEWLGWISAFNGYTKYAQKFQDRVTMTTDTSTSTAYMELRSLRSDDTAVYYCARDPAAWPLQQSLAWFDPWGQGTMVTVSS VL: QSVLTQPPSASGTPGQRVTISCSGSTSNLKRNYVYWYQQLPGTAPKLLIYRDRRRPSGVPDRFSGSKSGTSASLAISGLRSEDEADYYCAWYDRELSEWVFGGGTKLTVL . Reported pKd?
10.07

Item under review: RV31 IL-15 arm (antibody, V domains shown) VH: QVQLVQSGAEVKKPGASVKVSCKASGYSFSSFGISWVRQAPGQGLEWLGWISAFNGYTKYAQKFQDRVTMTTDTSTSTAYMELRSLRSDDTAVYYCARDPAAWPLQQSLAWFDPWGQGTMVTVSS VL: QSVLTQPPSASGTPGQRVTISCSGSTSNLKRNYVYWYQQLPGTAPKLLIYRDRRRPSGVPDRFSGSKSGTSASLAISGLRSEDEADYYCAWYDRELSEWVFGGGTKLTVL . Reported pKd?
9.74
